So I've got a bunch of compounds here, and I need their % inhibition of CPT I values.
- System: Carnitine palmitoyltransferase I (CPT I)
- protocol-text: Assay of carnitine palmitoyl transferase-I (CPT-I), Method-I
- Format: biochemical
- condition-description: inhibitor 5 mM, hamster flank organ hair follicle fraction
All answers are understood in %, so give the number only.

In: Looking for the measured % inhibition of CPT I of CCCCNC(=O)NS(=O)(=O)c1ccc(C)cc1 [tolbutamide] , can you help?
Out: 90

In: Looking for the measured % inhibition of CPT I of C1CCC(C(CC2CCCCN2)C2CCCCC2)CC1 (centres unmarked) , can you help?
Out: 86

In: Looking for the measured % inhibition of CPT I of CC(C)(COP(=O)(O)OP(=O)(O)OC[C@H]1O[C@@H](n2cnc3c(N)ncnc32)[C@H](O)[C@@H]1OP(=O)(O)O)[C@@H](O)C(=O)NCCC(=O)NCCSC(=O)CC(=O)O , can you help?
Out: 22

In: Looking for the measured % inhibition of CPT I of COc1ccc(Cl)cc1C(=O)NCCc1ccc(S(=O)(=O)NC(=O)NC2CCCCC2)cc1 [glynbenclamide] , can you help?
Out: 100

In: Looking for the measured % inhibition of CPT I of CCCCCCCCCCCCCCC(Br)C(=O)O (centres unmarked) , can you help?
Out: 91

Recorded values, source patent US20040198821A1.
